Quick reference for IC50 among some compounds
# target.of.assay: UniProt:P26358
# Sequence (P26358 whole entry, looked up): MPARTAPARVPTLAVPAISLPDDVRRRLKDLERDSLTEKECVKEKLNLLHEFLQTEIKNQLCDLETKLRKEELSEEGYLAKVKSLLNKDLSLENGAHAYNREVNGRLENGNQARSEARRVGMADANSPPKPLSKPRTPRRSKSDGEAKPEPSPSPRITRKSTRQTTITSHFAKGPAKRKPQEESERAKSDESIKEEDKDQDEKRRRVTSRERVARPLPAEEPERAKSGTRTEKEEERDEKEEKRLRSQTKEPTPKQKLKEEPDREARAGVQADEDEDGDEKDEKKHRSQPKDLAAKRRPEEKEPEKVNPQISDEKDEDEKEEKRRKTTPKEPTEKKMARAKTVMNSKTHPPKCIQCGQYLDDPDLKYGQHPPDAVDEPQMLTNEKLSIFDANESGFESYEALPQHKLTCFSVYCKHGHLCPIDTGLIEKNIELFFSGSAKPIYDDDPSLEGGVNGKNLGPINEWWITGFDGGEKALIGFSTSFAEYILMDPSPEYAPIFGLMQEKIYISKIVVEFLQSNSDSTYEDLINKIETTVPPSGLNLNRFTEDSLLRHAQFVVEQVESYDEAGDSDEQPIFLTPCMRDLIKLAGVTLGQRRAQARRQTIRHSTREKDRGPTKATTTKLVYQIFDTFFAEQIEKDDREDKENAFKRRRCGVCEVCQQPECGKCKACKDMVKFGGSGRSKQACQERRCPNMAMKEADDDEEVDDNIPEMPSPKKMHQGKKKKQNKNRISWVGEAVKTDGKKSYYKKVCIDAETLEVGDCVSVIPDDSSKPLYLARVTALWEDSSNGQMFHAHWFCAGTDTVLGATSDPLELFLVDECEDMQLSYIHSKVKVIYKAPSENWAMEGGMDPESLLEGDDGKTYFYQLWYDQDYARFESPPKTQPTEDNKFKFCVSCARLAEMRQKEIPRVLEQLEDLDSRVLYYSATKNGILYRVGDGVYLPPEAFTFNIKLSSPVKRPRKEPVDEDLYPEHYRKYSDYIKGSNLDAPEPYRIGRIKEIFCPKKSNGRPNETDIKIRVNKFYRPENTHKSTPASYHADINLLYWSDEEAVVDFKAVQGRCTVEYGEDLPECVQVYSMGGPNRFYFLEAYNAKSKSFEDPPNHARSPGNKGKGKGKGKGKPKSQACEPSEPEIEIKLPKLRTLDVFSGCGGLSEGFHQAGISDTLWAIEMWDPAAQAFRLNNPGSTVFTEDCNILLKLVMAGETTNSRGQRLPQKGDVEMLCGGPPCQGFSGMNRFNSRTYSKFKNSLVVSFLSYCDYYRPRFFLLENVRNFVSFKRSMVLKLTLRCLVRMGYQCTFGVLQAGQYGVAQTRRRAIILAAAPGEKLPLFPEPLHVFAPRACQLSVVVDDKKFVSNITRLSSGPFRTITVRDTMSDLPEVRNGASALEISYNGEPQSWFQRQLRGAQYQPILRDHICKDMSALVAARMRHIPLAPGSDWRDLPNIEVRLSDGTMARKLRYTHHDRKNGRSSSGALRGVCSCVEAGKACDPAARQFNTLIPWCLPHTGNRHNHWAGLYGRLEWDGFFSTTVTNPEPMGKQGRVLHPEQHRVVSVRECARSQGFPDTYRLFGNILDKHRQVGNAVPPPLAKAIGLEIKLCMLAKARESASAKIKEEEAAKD
# test.method.notes: DNMT1 biochemical activity, breaklight assay and/or SPA assay
# measurement.conditions: binned activity in either the breaklight or the SPA assay; read-out: DNMT1 BioChemical (pIC50 category) (converted)
Structures can show the parent of a compound that is named as a salt.

- compound: "CCc1c(C#N)c(SC(C(N)=O)c2ccccc2)nc(N2CCNC(=O)CC2)c1C#N (centres unmarked)"
  IC50: "316 to 1000 nM"
- compound: "CCc1c(C#N)c(SC(C(N)=O)c2ccc(C(=O)c3ccccc3)cc2)nc(N2CCCN(CCO)CC2)c1C#N (centres unmarked)"
  IC50: "316 to 1000 nM"
- compound: "CCc1c(C#N)c(SC(C(N)=O)C2CCNCC2)nc(N(C)C)c1C#N (centres unmarked)"
  IC50: "1000 to 31600 nM"
- compound: "CCc1c(C#N)c(SC(C(N)=O)c2ccccc2)nc(N2C[C@@H](O)[C@@H](O)C2)c1C#N (some centres unmarked)"
  IC50: "316 to 1000 nM"
- compound: "CCc1c(C#N)c(SC(C(N)=O)c2ccccc2)nc(N(C)CCOP(=O)(O)O)c1C#N (centres unmarked)"
  IC50: "1000 to 31600 nM"
- compound: "CCc1c(C#N)c(S[C@@H](C(N)=O)c2ccccc2)nc(N(C)CCOP(=O)(O)O)c1C#N"
  IC50: "1000 to 31600 nM"
- compound: "CCc1c(C#N)c(SC(C(N)=O)c2ccc(F)cc2)nc(N2CCC[C@H](CN)C2)c1C#N (some centres unmarked)"
  IC50: "< 316 nM"
- compound: "CCc1c(C#N)c(SCc2ccc(/C=C/C(=O)O)cc2)nc(N(C)C)c1C#N [Example 102, Trifluoroacetic Acid Salt]"
  IC50: "1000 to 31600 nM"

// provenance: patent US10975056B2
